# target-or-test-system: DGKα (Homo sapiens)
# Sequence (P23743 whole entry): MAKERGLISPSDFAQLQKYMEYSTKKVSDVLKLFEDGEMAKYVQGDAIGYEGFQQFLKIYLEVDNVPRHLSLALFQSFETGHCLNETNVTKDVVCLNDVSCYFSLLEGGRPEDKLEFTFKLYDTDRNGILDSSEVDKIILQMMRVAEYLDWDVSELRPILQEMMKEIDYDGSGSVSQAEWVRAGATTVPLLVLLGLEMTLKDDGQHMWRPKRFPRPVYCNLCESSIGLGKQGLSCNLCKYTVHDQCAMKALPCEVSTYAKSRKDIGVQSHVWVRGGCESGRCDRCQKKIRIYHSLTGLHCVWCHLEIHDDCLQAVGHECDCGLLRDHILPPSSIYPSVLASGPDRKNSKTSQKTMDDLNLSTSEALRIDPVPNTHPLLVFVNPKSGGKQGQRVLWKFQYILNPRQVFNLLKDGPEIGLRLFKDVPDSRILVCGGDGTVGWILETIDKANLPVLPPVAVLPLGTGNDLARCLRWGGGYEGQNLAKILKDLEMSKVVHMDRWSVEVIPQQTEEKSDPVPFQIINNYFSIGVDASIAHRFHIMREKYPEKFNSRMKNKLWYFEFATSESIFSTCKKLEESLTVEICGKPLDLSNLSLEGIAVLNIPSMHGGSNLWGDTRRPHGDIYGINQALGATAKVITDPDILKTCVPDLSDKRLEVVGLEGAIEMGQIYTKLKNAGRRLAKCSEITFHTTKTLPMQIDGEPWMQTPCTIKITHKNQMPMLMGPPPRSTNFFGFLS
IC50 listing for selected compounds.

Please review the following examples before continuing.
Cn1c(=O)c(F)c(N(C)[C@H]2CC[C@@H](N(CC3COCCO3)c3ccc(F)cc3F)CC2)c2nc(C#N)ccc21 (some centres unmarked) :: 10 to 100 nM
Cn1c(=O)c(C#N)c(N(C)[C@H]2CC[C@@H](N(C[C@H]3CCCOC3)c3ccc4c(c3)OCO4)CC2)c2nc(C#N)ccc21 :: < 10 nM
Cn1c(=O)cc(N[C@H]2CC[C@H](N(CC3CC3)c3ccc(F)cc3)CC2)c2nc(C#N)ccc21 :: 10 to 100 nM
Cn1c(=O)c(C#N)c(N(C)[C@H]2CC[C@@H](N(CC3CC3)c3cccc4c3oc(=O)n4C)CC2)c2nc(C#N)ccc21 :: ≥ 1000 nM
Cc1ccc(F)cc1N(CC1CC1)[C@H]1CC[C@H](N(C)c2c(C#N)c(=O)n(C)c3ccc(C#N)nc23)CC1 :: ≥ 1000 nM
COc1cc(N(CC2CC2)[C@H]2CC[C@H](N(C)c3c(C#N)c(=O)n(C)c4ccc(C#N)nc34)CC2)ccc1F :: 100 to 1000 nM

Ask: Form field: reported IC50 of Cc1nc(F)ccc1N(CC1CCC1)[C@H]1CC[C@H](N(C)c2c(C#N)c(=O)n(C)c3ccc(C#N)nc23)CC1
Result: 100 to 1000 nM

Ask: Form field: reported IC50 of COc1cc(F)ccc1N(C1CC1)[C@H]1CC[C@@H](N(C)c2cc(=O)n(C)c3ccc(C#N)nc23)CC1
Result: 100 to 1000 nM

Ask: Form field: reported IC50 of COc1cc(F)ccc1N(CC1CC1)[C@H]1CC[C@H](N(C)c2c(C#N)c(=O)n(C)c3ccc(Cl)nc23)CC1
Result: 10 to 100 nM

Ask: Form field: reported IC50 of Cn1c(=O)cc(N[C@H]2CC[C@@H](N(CC3COC3)c3ccccc3)CC2)c2nc(C#N)ccc21
Result: 100 to 1000 nM

Ask: Form field: reported IC50 of Cc1cc(F)ccc1N(C[C@H]1CCCO1)[C@H]1CC[C@H](N(C)c2c(C#N)c(=O)n(C)c3ccc(C#N)nc23)CC1
Result: 100 to 1000 nM

Ask: Form field: reported IC50 of CN1C(=O)CN([C@H]2CC[C@H](N(CC3CC3)c3ccccc3)CC2)c2nc(C#N)ccc21
Result: 10 to 100 nM

Ask: Form field: reported IC50 of Cc1cc2c(cc1N(CC1CCC1)[C@H]1CC[C@@H](N(C)c3cc(=O)n(C)c4ccc(C#N)nc34)CC1)OCO2
Result: 100 to 1000 nM

Ask: Form field: reported IC50 of COc1cc(N(C2CC2)[C@H]2CC[C@H](N(C)c3cc(=O)n(C)c4ccc(C#N)nc34)CC2)ccc1F
Result: 100 to 1000 nM
